Entries annotated with measured pKd
# TEST SYSTEM: T1, GFP-9S library array, motif 4 ND N98F;D124F (synthetic construct, N98F;D124F)
# T1 chain: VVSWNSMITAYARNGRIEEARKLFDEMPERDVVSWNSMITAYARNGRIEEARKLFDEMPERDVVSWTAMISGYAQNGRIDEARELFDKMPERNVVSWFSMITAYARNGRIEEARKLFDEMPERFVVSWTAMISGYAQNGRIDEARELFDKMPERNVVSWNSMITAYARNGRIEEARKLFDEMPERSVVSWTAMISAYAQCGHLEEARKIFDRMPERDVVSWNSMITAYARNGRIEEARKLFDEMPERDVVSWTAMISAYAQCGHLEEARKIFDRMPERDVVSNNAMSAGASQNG
# TEST METHOD NOTES: high-throughput RNA pulldown from lysate on Ni-NTA beads; HRP: 50 mM Tris pH 8, 150 mM NaCl, 1 mM beta-mercaptoethanol, 50 ug/ml BSA, 3 ug/ml yeast RNA, 0.5% heparin; ITC and FP: Tris pH 8, 200 mM KCl, 5% glycerol; MST: 50 mM Tris pH 8, 200 mM NaCl, 1 mM DTT, BSA, heparin, 0.05% Tween 20
# RECORDED CONDITIONS: tags: N-terminal His-eGFP; label: 5' IRDye 800CW
To interpret pKd, take it as minus log10 of a concentration measured in moles per litre.

{"columns": ["BINDER", "pKd"],
 "data": [
  ["AUUAAACGUGA (ssRNA) [IR-rpoA-A]", 6.70]
]}

As a next step, examine the binder that follows.
Q) Specify reported pKd for the binder shown: AUUAUACGUGA (ssRNA) [IR-rpoA-U]
A) 6.85
